Biological target: DNMT3A (Homo sapiens)
Sequence (Q9Y6K1 whole entry, looked up, species assumed): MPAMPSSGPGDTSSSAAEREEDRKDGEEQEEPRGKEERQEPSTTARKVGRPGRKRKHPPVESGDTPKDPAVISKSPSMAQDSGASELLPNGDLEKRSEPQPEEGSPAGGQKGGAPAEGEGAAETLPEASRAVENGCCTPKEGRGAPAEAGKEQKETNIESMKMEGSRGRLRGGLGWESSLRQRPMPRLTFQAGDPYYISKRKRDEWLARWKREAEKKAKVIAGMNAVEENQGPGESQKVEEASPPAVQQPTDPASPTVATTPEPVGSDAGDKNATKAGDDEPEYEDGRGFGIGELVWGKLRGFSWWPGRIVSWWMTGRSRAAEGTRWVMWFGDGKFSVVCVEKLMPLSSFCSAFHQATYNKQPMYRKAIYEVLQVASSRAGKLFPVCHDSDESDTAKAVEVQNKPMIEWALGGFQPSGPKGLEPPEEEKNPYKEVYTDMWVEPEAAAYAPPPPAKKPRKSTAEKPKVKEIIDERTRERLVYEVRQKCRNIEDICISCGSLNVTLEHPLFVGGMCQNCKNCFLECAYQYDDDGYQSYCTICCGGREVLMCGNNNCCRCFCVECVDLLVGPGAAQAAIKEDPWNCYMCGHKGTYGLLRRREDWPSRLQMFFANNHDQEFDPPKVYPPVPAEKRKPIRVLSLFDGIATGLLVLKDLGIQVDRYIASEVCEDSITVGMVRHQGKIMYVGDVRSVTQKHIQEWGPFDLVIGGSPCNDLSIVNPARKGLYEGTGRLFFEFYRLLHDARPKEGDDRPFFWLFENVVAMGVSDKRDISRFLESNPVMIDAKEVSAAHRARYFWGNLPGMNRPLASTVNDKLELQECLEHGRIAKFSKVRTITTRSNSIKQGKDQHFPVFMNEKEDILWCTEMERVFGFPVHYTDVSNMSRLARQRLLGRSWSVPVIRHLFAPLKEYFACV
measurement-type: IC50

// recorded IC50 for COc1cc2nc(N3CCCN(C)CC3)nc(NC3CCN(Cc4ccccc4)CC3)c2cc1OC [BIX01294] : > 100 µM

* * *

What pIC50 was measured for each of the following?
Molecular target: DNMT3B/3L (Homo sapiens, UniProt Q9UBC3)
Assay: DNMT3B enzyme activity assay (chemiluminescence BPS DNMT Universal Assay Kit)
pIC50: −log10 of the molar value.

Simply: COc1cc2c(NCC3CCN(C)CC3)cc(-c3ccc(C)o3)nc2cc1OCCCN1CCCC1 [Compound 3-07] , DNMT3B/3L (Homo sapiens, UniProt Q9UBC3), pIC50 = 6.00 to 6.30

Simply: COc1cc2c(NC3CCN(C)CC3)cc(-c3ccc(C)o3)nc2cc1OCCCN1CCCC1.O=C(O)C(F)(F)F [Compound 3-04] , DNMT3B/3L (Homo sapiens, UniProt Q9UBC3), pIC50 = 6.30 to 7.00
